# Tested on: Golden Syrian hamster
# test method notes: Evaluation of antilipidemic property in hamster animal model (2-week daily oral gavage)
# Assay type: in vivo
# cond: Equivalent Dose 160 mg
For each record, write down the corresponding % Decrease On: HDL-C.
Answer by giving the amount and then stating its unit.

// known answers, use as guide
molecule="CC[C@H](C)C(=O)O[C@H]1C[C@@H](C)C=C2C=C[C@H](C)[C@H](CC[C@@H]3C[C@@H](O)CC(=O)O3)[C@H]21 [Mevacor, Lovastatin]" property_name="% Decrease On: HDL-C" assay_result=26.7%
molecule="CC(C)c1c(C(=O)Nc2ccccc2)c(-c2ccccc2)c(-c2ccc(F)cc2)n1CC[C@@H](O)C[C@@H](O)CC(=O)O [Lipitor, Atorvastatin]" property_name="% Decrease On: HDL-C" assay_result=30.7%
molecule="CC[C@H](C)C(=O)O[C@H]1C[C@@H](C)C=C2C=C[C@H](C)[C@H](CC[C@@H](O)C[C@@H](O)CC(=O)[O-])[C@H]21.[Na+] [Compound I]" property_name="% Decrease On: HDL-C" assay_result=32.2%
molecule="CC[C@H](C)C(=O)O[C@H]1C[C@H](O)C=C2C=C[C@H](C)[C@H](CC[C@@H](O)C[C@@H](O)CC(=O)O)[C@H]21 [Pravachol, Pravastatin]" property_name="% Decrease On: HDL-C" assay_result=17.3%

Okay, next one:
Form field: reported % Decrease On: HDL-C of CCC(C)(C)C(=O)O[C@H]1C[C@@H](C)C=C2C=C[C@H](C)[C@H](CC[C@@H]3C[C@@H](O)CC(=O)O3)[C@H]21 [Zocor, Simvastatin]
30.7%

====

# System: Golden Syrian hamster
# test method notes: Evaluation of antilipidemic property in hamster animal model (2-week daily oral gavage)
# Format: in vivo
# cond: Equivalent Dose 160 mg (per 70 kg man), oral gavage 2 weeks, serum
property name: % Decrease On: Total Cholesterol (%)
Give bare numbers, in %.

Examples with answers:
given_smiles=CC(C)c1c(C(=O)Nc2ccccc2)c(-c2ccccc2)c(-c2ccc(F)cc2)n1CC[C@@H](O)C[C@@H](O)CC(=O)O assay_result=43.0
given_smiles=CC[C@H](C)C(=O)O[C@H]1C[C@@H](C)C=C2C=C[C@H](C)[C@H](CC[C@@H]3C[C@@H](O)CC(=O)O3)[C@H]21 assay_result=36.6
given_smiles=CC[C@H](C)C(=O)O[C@H]1C[C@H](O)C=C2C=C[C@H](C)[C@H](CC[C@@H](O)C[C@@H](O)CC(=O)O)[C@H]21 assay_result=23.0
given_smiles=CCC(C)(C)C(=O)O[C@H]1C[C@@H](C)C=C2C=C[C@H](C)[C@H](CC[C@@H]3C[C@@H](O)CC(=O)O3)[C@H]21 assay_result=40.7

// next entry
Consider the molecule CC[C@H](C)C(=O)O[C@H]1C[C@@H](C)C=C2C=C[C@H](C)[C@H](CC[C@@H](O)C[C@@H](O)CC(=O)[O-])[C@H]21.[Na+] and give its measured % Decrease On: Total Cholesterol.
40.7

====

Consider the following molecules; for each one, report its % Decrease On: LDL-C.
# System: Golden Syrian hamster
# test method notes: Evaluation of antilipidemic property in hamster animal model (2-week daily oral gavage)
# Assay type: in vivo
# cond: Equivalent Dose 160 mg
# Experimental: Evaluation of antilipidemic property in animal. […] Thus, the calculated final dose for a 100-gm hamster is 0.143 mg as well ([…] X a factor of “10”), formulated in a 0.25 ml solution for oral gavage administration. […] Body weights were recorded prior to drug administration and every other day during the test duration. […]

Guide cases for % Decrease On: LDL-C, answers given:
given_smiles=CCC(C)(C)C(=O)O[C@H]1C[C@@H](C)C=C2C=C[C@H](C)[C@H](CC[C@@H]3C[C@@H](O)CC(=O)O3)[C@H]21 assay_result=54.4%
given_smiles=CC(C)c1c(C(=O)Nc2ccccc2)c(-c2ccccc2)c(-c2ccc(F)cc2)n1CC[C@@H](O)C[C@@H](O)CC(=O)O assay_result=54.4%
given_smiles=CC[C@H](C)C(=O)O[C@H]1C[C@@H](C)C=C2C=C[C@H](C)[C@H](CC[C@@H]3C[C@@H](O)CC(=O)O3)[C@H]21 assay_result=54.4%
given_smiles=CC[C@H](C)C(=O)O[C@H]1C[C@H](O)C=C2C=C[C@H](C)[C@H](CC[C@@H](O)C[C@@H](O)CC(=O)O)[C@H]21 assay_result=33.3%

Now consider the entry below.
I would be grateful if you could share the reported % Decrease On: LDL-C for CC[C@H](C)C(=O)O[C@H]1C[C@@H](C)C=C2C=C[C@H](C)[C@H](CC[C@@H](O)C[C@@H](O)CC(=O)[O-])[C@H]21.[Na+] .
29.2%
